Test system: murine macrophage cells
procedure-details: nitric oxide production by murine macrophage cells (Griess)
Format: cell-based, C57/BL6 mice
run-conditions: lowest concentration inducing a significant response

>  <compound>
CCCCCCCCCCCC(=O)O[C@H](CCCCCCCCCCC)CC(=O)N[C@H](CC(=O)O)C(=O)NCCC[C@H](COC(=O)CCCCCO)NC(=O)C[C@H](O)CCCCCCCCCCC [OM-197-MC-FV7]

>  <assay-system>
murine macrophage cells

>  <prefix-operator>
=

>  <Min concentration / µg/mL>
0.36

$$$$
>  <compound>
CCCCCCCCCCCC(=O)O[C@H](CCCCCCCCCCC)CC(=O)N[C@H](CC(=O)O)C(=O)NCCC[C@H](COC(=O)CCC(=O)O)NC(=O)C[C@H](O)CCCCCCCCCCC [OM-197-MC-Succ]

>  <assay-system>
murine macrophage cells

>  <prefix-operator>
=

>  <Min concentration / µg/mL>
0.22

$$$$
>  <compound>
CCCCCCCCCCCC(=O)O[C@H](CCCCCCCCCCC)CC(=O)N[C@H](CC(=O)N[C@@H](CCCCN)C(=O)O)C(=O)NCCC[C@H](CO)NC(=O)C[C@H](O)CCCCCCCCCCC [OM-197-Lys]

>  <assay-system>
murine macrophage cells

>  <prefix-operator>
<

>  <Min concentration / µg/mL>
0.47

$$$$
>  <compound>
CCCCCCCCCCCC(=O)O[C@H](CCCCCCCCCCC)CC(=O)N[C@H](CC(=O)NCCCN)C(=O)NCCC[C@H](CO)NC(=O)C[C@H](O)CCCCCCCCCCC [OM-197-AP]

>  <assay-system>
murine macrophage cells

>  <prefix-operator>
=

>  <Min concentration / µg/mL>
1.87

$$$$
>  <compound>
CCCCCCCCCCCC(=O)O[C@H](CCCCCCCCCCC)CC(=O)N[C@H](CC(=O)O)C(=O)NCCC[C@H](COC(=O)CCCCCN)NC(=O)C[C@H](O)CCCCCCCCCCC [OM-197-MC-AC]

>  <assay-system>
murine macrophage cells

>  <prefix-operator>
=

>  <Min concentration / µg/mL>
0.91

$$$$
>  <compound>
CCCCCCCCCCCC(=O)O[C@H](CCCCCCCCCCC)CC(=O)NC(CCOP(=O)(O)O)C(=O)NCCC[C@H](COC(=O)CCCCCN)NC(=O)C[C@H](O)CCCCCCCCCCC (mixture of isomers) [OM-197-MP-AC (R/S, R)]

>  <assay-system>
murine macrophage cells

>  <prefix-operator>
=

>  <Min concentration / µg/mL>
1.04

$$$$
>  <compound>
CCCCCCCCCCCC(=O)O[C@H](CCCCCCCCCCC)CC(=O)N[C@H](CC(=O)O)C(=O)NCCC[C@H](COC(=O)CCCCC(O)CO)NC(=O)C[C@H](O)CCCCCCCCCCC (stereo partly shown) [OM-197-MC-FV5]

>  <assay-system>
murine macrophage cells

>  <prefix-operator>
=

>  <Min concentration / µg/mL>
0.67

$$$$
>  <compound>
CCCCCCCCCCC[C@@H](O)CC(=O)N[C@H](CCCNC(=O)[C@@H](CC(=O)O)NC(=O)C(CCCCCC)OC(=O)CCCCCCCCC)COC(=O)CCCCCN (stereo partly shown) [OM-197-N′(C10-20C8)-MC-AC]

>  <assay-system>
murine macrophage cells

>  <prefix-operator>
=

>  <Min concentration / µg/mL>
54.3

$$$$
>  <compound>
CCCCCCCCCCCC(=O)O[C@H](CCCCCCCCCCC)CC(=O)N[C@H](CC(=O)O)C(=O)NCCC[C@H](COP(=O)(O)O)NC(=O)C[C@H](O)CCCCCCCCCCC [OM-197-MC-MP]

>  <assay-system>
murine macrophage cells

>  <prefix-operator>
=

>  <Min concentration / µg/mL>
0.11

$$$$
>  <compound>
CCCCCCCCCCCC(=O)O[C@H](CCCCCCCCCCC)CC(=O)NC(CCOP(=O)(O)O)C(=O)NCCCC(COC(=O)CCCCCO)NC(=O)C[C@H](O)CCCCCCCCCCC (stereo partly shown) [OM-197-FV8]

>  <assay-system>
murine macrophage cells

>  <prefix-operator>
=

>  <Min concentration / µg/mL>
1.45

$$$$

====

Tested on: human peripheral blood mononuclear cells
procedure-details: α TNF production by human peripheral blood mononuclear cells
Assay type: cell-based
run-conditions: product 100 μg/ml, 18 hours
Decide using α TNF produced: a value greater than or equal to 80 pg/mL is 1, a smaller one is 0.

>  <molecule>
CCCCCCCCCCCC(=O)O[C@H](CCCCCCCCCCC)CC(=O)N[C@H](CC(=O)O)C(=O)NCCC[C@H](COC(=O)CCCCC(O)CO)NC(=O)C[C@H](O)CCCCCCCCCCC (some centres unmarked)

>  <class-assignment>
1

$$$$
>  <molecule>
CCCCCCCCCCCC(=O)O[C@H](CCCCCCCCCCC)CC(=O)N[C@H](CC(=O)O)C(=O)NCCC[C@H](COP(=O)(O)O)NC(=O)C[C@H](O)CCCCCCCCCCC

>  <class-assignment>
0

$$$$
>  <molecule>
CCCCCCCCCCCC(=O)O[C@H](CCCCCCCCCCC)CC(=O)N[C@H](CC(=O)O)C(=O)NCCC[C@H](COC(=O)CCC(=O)O)NC(=O)C[C@H](O)CCCCCCCCCCC

>  <class-assignment>
1

$$$$
>  <molecule>
CCCCCCCCCCCC(=O)O[C@H](CCCCCCCCCCC)CC(=O)NC(CCOP(=O)(O)O)C(=O)NCCCC(COC(=O)CCCCCO)NC(=O)C[C@H](O)CCCCCCCCCCC (some centres unmarked)

>  <class-assignment>
1

$$$$
>  <molecule>
CCCCCCCCCCCC(=O)O[C@H](CCCCCCCCCCC)CC(=O)N[C@H](CC(=O)O)C(=O)NCCC[C@H](COC(=O)CCCCCNC(=O)CCC(=O)OC[C@H]1O[C@@H](n2cc(C)c(=O)[nH]c2=O)C[C@@H]1N=[N+]=[N-])NC(=O)C[C@H](O)CCCCCCCCCCC

>  <class-assignment>
0

$$$$
>  <molecule>
CCCCCCCCCCCC(=O)O[C@H](CCCCCCCCCCC)CC(=O)N[C@H](CC(=O)O)C(=O)NCCC[C@H](COC(=O)CCCCCN)NC(=O)C[C@H](O)CCCCCCCCCCC

>  <class-assignment>
1

$$$$
>  <molecule>
CCCCCCCCCCCC(=O)O[C@H](CCCCCCCCCCC)CC(=O)NC(CCOP(=O)(O)O)C(=O)NCCC[C@H](COC(=O)CCCCCN)NC(=O)C[C@H](O)CCCCCCCCCCC (mixture of isomers) [OM-197-MP-AC (R/S, R)]

>  <class-assignment>
1

$$$$
>  <molecule>
CCCCCCCCCCC[C@@H](O)CC(=O)N[C@H](CCCNC(=O)[C@@H](CC(=O)O)NC(C)=O)COC(=O)CCCCCN

>  <class-assignment>
0

$$$$
>  <molecule>
CCCCCCCCCCCC(=O)O[C@H](CCCCCCCCCCC)CC(=O)N[C@H](CC(=O)N[C@@H](CCCCN)C(=O)O)C(=O)NCCC[C@H](COC(=O)CCCCCN)NC(=O)C[C@H](O)CCCCCCCCCCC

>  <class-assignment>
1

$$$$
>  <molecule>
CCCCCCCCCCCC(=O)O[C@H](CCCCCCCCCCC)CC(=O)NC(CCOP(=O)(O)O)C(=O)NCCCC(COC(=O)CCCCC(O)CO)NC(=O)C[C@H](O)CCCCCCCCCCC (some centres unmarked)

>  <class-assignment>
1

$$$$
>  <molecule>
CCCCCCCCCCCC(=O)O[C@H](CCCCCCCCCCC)CC(=O)N[C@H](CC(=O)O)C(=O)NCCC[C@H](CO)NC(=O)C[C@H](O)CCCCCCCCCCC

>  <class-assignment>
0

$$$$
>  <molecule>
CCCCCCCCCCCC(=O)O[C@H](CCCCCCCCCCC)CC(=O)N[C@H](CC(=O)O)C(=O)NCCC[C@H](COC(=O)CCCCCNC(=O)CCC(=O)O)NC(=O)C[C@H](O)CCCCCCCCCCC

>  <class-assignment>
0

$$$$
>  <molecule>
CCCCCCCCCCCC(=O)O[C@H](CCCCCCCCCCC)CC(=O)N[C@H](CC(=O)O)C(=O)NCCC[C@H](COC(=O)CCCCCO)NC(=O)C[C@H](O)CCCCCCCCCCC

>  <class-assignment>
0

$$$$
>  <molecule>
CCCCCCCCCCCC(=O)O[C@H](CCCCCCCCCCC)CC(=O)N[C@H](CC(=O)N[C@@H](CCCCN)C(=O)O)C(=O)NCCC[C@H](CO)NC(=O)C[C@H](O)CCCCCCCCCCC

>  <class-assignment>
0

$$$$
>  <molecule>
CCCCCCCCCCC[C@@H](O)CC(=O)N[C@H](CCCNC(=O)[C@@H](CC(=O)O)NC(=O)C(CCCCCC)OC(=O)CCCCCCCCC)COC(=O)CCCCCN (some centres unmarked)

>  <class-assignment>
0

$$$$
>  <molecule>
CCCCCCCCCCCC(=O)O[C@H](CCCCCCCCCCC)CC(=O)N[C@H](CC(=O)O)C(=O)NCCC[C@H](COC(=O)CCCCCNC(=O)CCC(=O)OC[C@@H]1C=C[C@H](n2cc(C)c(=O)[nH]c2=O)O1)NC(=O)C[C@H](O)CCCCCCCCCCC

>  <class-assignment>
0

$$$$
>  <molecule>
CCCCCCCCCCCC(=O)O[C@H](CCCCCCCCCCC)CC(=O)N[C@H](CC(=O)N[C@@H](CC(=O)O)C(=O)O)C(=O)NCCC[C@H](COC(=O)CCCCCN)NC(=O)C[C@H](O)CCCCCCCCCCC

>  <class-assignment>
1

$$$$
>  <molecule>
CCCCCCCCCCCC(=O)O[C@H](CCCCCCCCCCC)CC(=O)N[C@H](CC(=O)NCCCN)C(=O)NCCC[C@H](CO)NC(=O)C[C@H](O)CCCCCCCCCCC

>  <class-assignment>
1

$$$$
